# Test system: SF-539 CNS
# experiment: NCI-60 one-dose screen, 48 h (100 = growth as untreated, 0 = no growth, -100 = all killed)
# testConditions: 10 µM
The panel holds about 83,000 compounds, 20% with a hit somewhere; the sample as a whole holds those more often.

{"compound": "Nc1nc(N)c2c(ccc3nccc32)[nH]1", "unitsLabel": "%", "growth": 57.9}
{"compound": "CCOC(=O)N1C/C(=C/c2ccc(OC)cc2)C(=O)/C(=C/c2ccc(OC)cc2)C1", "unitsLabel": "%", "growth": 39.4}
{"compound": "Cc1occc1-c1nnc(SCC(=O)c2ccc(NC(=O)CC(C)C)cc2)o1", "unitsLabel": "%", "growth": 101}
{"compound": "Cc1ccc(Nc2cc(C)nc(NCCCNc3ccnc4cc(Cl)ccc34)n2)cc1", "unitsLabel": "%", "growth": -96.9}
{"compound": "O=C1OCC2=C1C(c1cccc(Cl)c1)c1cc3c(cc1N2CCO)CCC3 (stereo not given)", "unitsLabel": "%", "growth": -5.32}
{"compound": "CCN(CC)CCOc1nc2ccc(OC)cc2c2c1-c1ccc(OC)cc1C2=O", "unitsLabel": "%", "growth": 28.8}
{"compound": "COc1ccc2c(c1)C(=O)c1c-2c(=O)n(CCCN(C)C)c2cc(OC)c(OC)cc12", "unitsLabel": "%", "growth": 55}
{"compound": "COc1ccc2nc3cc(Cl)ccc3c(NCCNCC(C)O)c2c1 (stereo not given)", "unitsLabel": "%", "growth": 26.2}
{"compound": "COc1ccc(Cn2c(C(N)=O)cc3c2-c2nc(N)ncc2CCC3)cc1", "unitsLabel": "%", "growth": 95.8}
{"compound": "O=c1oc2cc(OS(=O)(=O)c3ccccc3)ccc2c2c1CCCCC2", "unitsLabel": "%", "growth": 48.3}

----------
# Tested on: KM12 colon
# experiment: NCI-60 one-dose screen, 48 h
# testConditions: 10 µM
This is part of a sample that, as a whole, favours compounds with a hit. Of some 83,000 tested, about 20% had one in any assay. The source made the active and inactive calls. How the source made its calls: active means growth percent below 10; inactive means the rest.
Possible outcomes: active, inactive

{"compound": "CCCCCCNC(=O)Oc1ccc(/C(=C(/CC)Cc2ccccc2)c2ccc(OCCN3CCCCC3)cc2)cc1", "qualitativeLabel": "inactive"}
{"compound": "COc1cc2c(cc1OC)N(CCO)C1=C(C(=O)OC1)C2c1ccc(Cl)c(Cl)c1 (stereo not given)", "qualitativeLabel": "inactive"}
{"compound": "COc1cc(Cl)cc(-c2nn(-c3cccc(NC(=O)Nc4ccc(Cl)c(C(F)(F)F)c4)c3)cc2-c2ccncc2)c1", "qualitativeLabel": "active"}
{"compound": "Cn1c(N)c(N=Nc2ccc(S(=O)(=O)Nc3nccs3)cc2)c(=O)n(C)c1=O", "qualitativeLabel": "inactive"}
{"compound": "CC(=O)CSC(C)=O", "qualitativeLabel": "inactive"}
{"compound": "Cc1cc(C)c2c(n1)sc1c(Nc3ccc(Cl)cc3)ncnc12", "qualitativeLabel": "inactive"}
{"compound": "CCN(CCCCCCCCCCN1CC(=O)N(CCCCCCCCCCN(CC)Cc2ccccc2OC)CC1=O)Cc1ccccc1OC", "qualitativeLabel": "active"}
{"compound": "CC(C)=CCc1ccc(O)c(=O)cc1C(C)C", "qualitativeLabel": "inactive"}
{"compound": "COc1ccc(-c2nn(-c3cccc(NC(=O)Nc4cccc(C(F)(F)F)c4)c3)cc2-c2ccncc2)cc1Cl", "qualitativeLabel": "active"}
{"compound": "CCCCCCCCCCCCCCCC(=O)OC1[C@@H](OC(=O)CCCCCCCCCCCCCCC)[C@@H](C(=O)N[C@@H](CCCCN)C(=O)OC)O[C@H]1n1cnc2c(=O)[nH]c(NC(=O)C(C)C)nc21 (stereo not given in full)", "qualitativeLabel": "inactive"}
{"compound": "COc1ccc(S(=O)(=O)NCCCNc2nccc(-c3c(-c4ccc(F)cc4)nc4sccn34)n2)cc1", "qualitativeLabel": "inactive"}
{"compound": "Nc1cc2c(cc1Cl)-c1ccc([N+](=O)[O-])cc1/C2=N\\O", "qualitativeLabel": "inactive"}
{"compound": "COc1ccc(-c2nn(-c3cccc(NC(=O)c4ccc(N5CCOCC5)c(C(F)(F)F)c4)c3)cc2-c2ccncc2)cc1Cl", "qualitativeLabel": "inactive"}
{"compound": "CCCCC/C=C/C(=O)CCc1ccc(O)c(OC)c1", "qualitativeLabel": "inactive"}
{"compound": "CS(=O)(=O)Nc1cccc(-c2cc(-c3ccccc3Cl)c(C#N)c(N)n2)c1", "qualitativeLabel": "inactive"}
{"compound": "N#CSCC1CC(O)(c2ccccc2)CC(c2ccc(Cl)cc2)O1 (stereo not given)", "qualitativeLabel": "inactive"}
{"compound": "c1ccc([I+]c2ccccc2)cc1", "qualitativeLabel": "inactive"}
{"compound": "CCCCCCCC(C)NCCO (stereo not given)", "qualitativeLabel": "inactive"}
{"compound": "Cc1ccc(NC(=O)CSc2nc3ccccc3c(=O)n2CCc2ccccc2)c(C(=O)O)c1", "qualitativeLabel": "inactive"}
{"compound": "COc1ccc(/C=C/C(C)=N/OCC(=O)O)cc1", "qualitativeLabel": "inactive"}
